Molecular target: T1, mouse VISTA recombinant protein (Sino Biological Inc., Cat. #51550-M08H), biotinylated (mouse, UniProt Q9D659 33-191, biotinylated using EZ-LINK NHS-PEG4 biotin)
T1 construct: Bought protein; also called mouse VISTA protein
T1 sequence (looked up): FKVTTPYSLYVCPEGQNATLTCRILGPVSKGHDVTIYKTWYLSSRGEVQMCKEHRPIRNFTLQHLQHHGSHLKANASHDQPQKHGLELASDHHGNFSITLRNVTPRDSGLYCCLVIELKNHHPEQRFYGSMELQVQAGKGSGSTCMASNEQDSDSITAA
Test: BLI (Octet QKe), biotinylated VISTA on streptavidin sensors, antibody at 5 µg/ml
readout.name: binding result

{"binder": "9F9 humanized anti-VISTA antibody VH15/VL15 (antibody, V domains shown, also called 9E9 anti-VISTA VH15/VL15) VH: QVQLVQSGAEVMKPGASVKLSCKASGYTFTGYWMQWVKQRPGQGLEWIGAIYPGDGDTRYSQKFKGKATMTADTSISTAYMELSRLRSDDSAVYYCARRDYGAWFAYWGAGTTVTVSS VL: DIVMTQSPSSLSASVGERVTITCKASQDINSYLSWFQQKPGKAPKTLIYRANRLVDGVPSRFSGSGSGTDFTFTISSVQPEDLAIYYCLQYDEFPYTFGGGTKLEIK", "observed.result": "binds"}

Sourced from patent US20260078185A1
